Conditions: siRNA; also: test system not given here
HELM strings list units from the 5' end as sugar, base in round brackets, then linkage (d deoxyribose, r ribose, m 2'-O-methyl, p phosphodiester). Strings are as the collection lists them, not checked against the first reports. ss, as = sense and antisense strand
Entries annotated with measured target mRNA knockdown
Give the value in % but do not write % after it.

# substance, target mRNA knockdown, %
rows = [
    ("RNA1{r(G)p.r(G)p.r(A)p.m(C)p.m(U)p.r(A)p.m(C)p.m(U)p.r(A)p.r(A)p.m(C)p.m(C)p.m(U)p.m(C)p.m(C)p.r(A)p.r(G)p.m(U)p.m(U)p.r(T)p.r(T)}|RNA2{r(A)p.r(A)p.m(C)p.m(U)p.r(G)p.r(G)p.r(A)p.r(G)p.r(G)p.m(U)p.m(U)p.r(A)p.r(G)p.m(U)p.r(A)p.r(G)p.m(U)p.m(C)p.m(C)p.r(T)p.r(T)}$$$RNA1{StrandType:ss}|RNA2{StrandType:as}$", 7),
]

Look up and report measured target mRNA knockdown for this entry: RNA1{m(A)p.m(A)p.m(G)p.r(G)p.r(A)p.m(G)p.m(A)p.m(U)p.r(C)p.r(A)p.r(A)p.m(C)p.m(A)p.m(U)p.r(U)p.r(U)p.m(U)p.m(C)p.m(A)p.r(T)p.r(T)}|RNA2{m(U)p.m(G)p.m(A)p.r(A)p.r(A)p.m(A)p.m(U)p.m(G)p.r(U)p.r(U)p.r(G)p.m(A)p.m(U)p.m(C)p.r(U)p.r(C)p.m(C)p.m(U)p.m(U)p.r(T)p.r(T)}$$$RNA1{StrandType:ss}|RNA2{StrandType:as}$
45

###

Entries annotated with measured target mRNA knockdown
Conditions: siRNA
HELM strings list units from the 5' end as sugar, base in round brackets, then linkage (d deoxyribose, r ribose, m 2'-O-methyl, p phosphodiester). Strings are as the collection lists them, not checked against the first reports. ss, as = sense and antisense strand; [lna] = locked nucleic acid (LNA); [hna] = hexitol nucleic acid; [s4r] = 4'-thioribose; [fl2r] = 2'-fluoro
Kindly format the answer as number then unit.

# substance, recorded.result
data = [
    ("RNA1{r(G)p.[hna](A)p.r(C)p.r(G)p.r(U)p.r(A)p.r(A)p.[hna](A)p.r(C)p.r(G)p.r(G)p.r(C)p.r(C)p.[hna](A)p.r(C)p.r(A)p.[hna](A)p.r(G)p.r(U)p.r(U)p.r(C)}|RNA2{[fl2r](A)p.m(C)p.[fl2r](U)p.m(U)p.[fl2r](G)p.m(U)p.[fl2r](G)p.m(G)p.[fl2r](C)p.m(C)p.[fl2r](G)p.m(U)p.[fl2r](U)p.m(U)p.[fl2r](A)p.m(C)p.[fl2r](G)p.m(U)p.[fl2r](C)p.m(G)p.[fl2r](C)}$$$RNA1{StrandType:ss}|RNA2{StrandType:as}$", "7.8%"),
    ("RNA1{r(U)p.r(U)p.m(U)p.r(G)p.r(A)p.r(U)p.m(C)p.r(A)p.r(G)p.r(C)p.r(G)p.r(G)p.r(A)p.r(G)p.r(A)p.r(C)p.r(U)p.r(C)p.r(G)p.r(T)p.r(T)}|RNA2{r(C)p.r(G)p.r(A)p.r(G)p.r(U)p.r(C)p.r(U)p.r(C)p.r(C)p.r(G)p.r(C)p.m(U)p.r(G)p.r(A)p.r(U)p.m(C)p.r(A)p.r(A)p.r(A)p.r(T)p.r(T)}$$$RNA1{StrandType:ss}|RNA2{StrandType:as}$", "89%"),
]

Look up and report measured target mRNA knockdown for this entry: RNA1{r(A)p.r(G)p.r(A)p.r(C)p.[fl2r](U)p.r(A)p.r(A)p.r(G)p.r(C)p.r(C)p.[fl2r](C)p.r(A)p.r(A)p.r(A)p.r(A)p.r(G)p.r(G)p.r(G)p.r(C)p.r(T)p.r(T)}|RNA2{r(G)p.r(C)p.r(C)p.r(C)p.r(U)p.r(U)p.r(U)p.[fl2r](U)p.r(G)p.r(G)p.r(G)p.r(C)p.r(U)p.[fl2r](U)p.r(A)p.r(G)p.r(U)p.r(C)p.r(U)p.r(T)p.r(T)}$$$RNA1{StrandType:ss}|RNA2{StrandType:as}$
45%

Look up and report measured target mRNA knockdown for this entry: RNA1{[lna](T)p.r(G)p.r(A)p.r(G)p.r(A)p.r(G)p.r(A)p.r(A)p.r(A)p.r(G)p.r(C)p.r(A)p.r(C)p.r(A)p.r(G)p.r(A)p.r(A)p.r(A)p.r(A)p.[lna](T)p.[lna](T)}|RNA2{r(U)p.r(U)p.r(U)p.r(U)p.r(C)p.r(U)p.r(G)p.r(U)p.r(G)p.r(C)p.r(U)p.r(U)p.r(U)p.r(C)p.r(U)p.r(C)p.r(U)p.r(C)p.r(A)p.r(T)p.r(T)}$$$RNA1{StrandType:ss}|RNA2{StrandType:as}$
74%

Look up and report measured target mRNA knockdown for this entry: RNA1{r(C)p.r(G)p.r(U)p.r(A)p.r(C)p.r(G)p.[s4r](C)p.[s4r](G)p.[s4r](G)p.[s4r](A)p.[s4r](A)p.[s4r](U)p.[s4r](A)p.r(C)p.r(U)p.r(U)p.r(C)p.r(G)p.r(A)p.r(T)p.r(T)}|RNA2{r(U)p.r(C)p.r(G)p.r(A)p.r(A)p.r(G)p.r(U)p.r(A)p.r(U)p.r(U)p.r(C)p.r(C)p.r(G)p.r(C)p.r(G)p.r(U)p.r(A)p.r(C)p.r(G)p.r(T)p.r(T)}$$$RNA1{StrandType:ss}|RNA2{StrandType:as}$
87.4%

Where do the numbers come from? From the OligoGym collection.
